System: PPARg DBDmut IVT, anti-PPARg (DBD mutation: PPARg1 K132A/R137A, NR concentration 270 nM)
method.notes: PBM binding z-score (relative to random genomic background probes); higher = stronger binding; sequences stand for … in GC…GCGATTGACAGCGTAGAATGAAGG
Class rule met: PBM binding z-score at least 0.6. Class rule not met: PBM binding z-score below 0.6.

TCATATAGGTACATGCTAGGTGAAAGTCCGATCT
rule met
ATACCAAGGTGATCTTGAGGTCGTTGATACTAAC
rule met

Lookup: # bool: PBM binding z-score of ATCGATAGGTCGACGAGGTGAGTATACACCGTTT >= 0.6
Found: rule not met

Lookup: # bool: PBM binding z-score of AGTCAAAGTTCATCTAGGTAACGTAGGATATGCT >= 0.6
Found: rule met

Lookup: # bool: PBM binding z-score of GCTAGTTGGTCAGTAAAAGCTCACACACCGGTCG >= 0.6
Found: rule not met

Lookup: # bool: PBM binding z-score of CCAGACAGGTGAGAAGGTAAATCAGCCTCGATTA >= 0.6
Found: rule not met

====

Tested on: RARb homodimer (NR concentration 270 nM)
method.notes: PBM binding z-score (relative to random genomic background probes); higher = stronger binding; sequences stand for … in GC…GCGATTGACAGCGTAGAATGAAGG
quantity.name: PBM binding z-score
// return just the number, without any unit appended

Some solved cases for reference:
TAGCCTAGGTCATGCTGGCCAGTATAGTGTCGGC
3.02
ATCGAAAGGTCGTGAGGTGAGTGTACAGAAAGGC
3.06
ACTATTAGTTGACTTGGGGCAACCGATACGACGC
0.856
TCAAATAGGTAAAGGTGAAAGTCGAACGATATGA
1.73
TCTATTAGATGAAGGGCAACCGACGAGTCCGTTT
1.1

Lookup: Looking for the measured PBM binding z-score of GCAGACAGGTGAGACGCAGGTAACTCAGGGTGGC , can you help?
Found: -0.0826

Lookup: Looking for the measured PBM binding z-score of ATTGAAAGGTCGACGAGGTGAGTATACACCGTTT , can you help?
Found: 3.13

====

System: RARg homodimer (NR concentration 270 nM)
method.notes: PBM binding z-score (relative to random genomic background probes); higher = stronger binding; sequences stand for … in GC…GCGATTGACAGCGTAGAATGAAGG
quantity.name: PBM binding z-score
// return just the number, without any unit appended

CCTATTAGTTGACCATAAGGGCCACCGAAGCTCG
0.644

Lookup: Looking for the measured PBM binding z-score of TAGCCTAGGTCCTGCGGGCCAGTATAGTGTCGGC , can you help?
Found: -0.818

Lookup: Looking for the measured PBM binding z-score of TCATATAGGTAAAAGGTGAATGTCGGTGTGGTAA , can you help?
Found: 1.04

Lookup: Looking for the measured PBM binding z-score of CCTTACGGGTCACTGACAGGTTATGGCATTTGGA , can you help?
Found: 4.82

Lookup: Looking for the measured PBM binding z-score of CCGACGGGGGCATAAGGTTACCATAAGCCAGCCC , can you help?
Found: 3.14

Lookup: Looking for the measured PBM binding z-score of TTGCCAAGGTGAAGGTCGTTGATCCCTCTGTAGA , can you help?
Found: 1.02

====

Tested on: THRa:RXRa (NR concentration 90 nM, RXRa partner concentration 90 nM)
method.notes: PBM binding z-score (relative to random genomic background probes); higher = stronger binding; sequences stand for … in GC…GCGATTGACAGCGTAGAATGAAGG
Note: every record was labeled by where its PBM binding z-score sits among group 1: < 1; group 2: ≥ 1 and < 2; group 3: ≥ 2

TCATATGGGTAATACAGGTGAAAGTCGGCATCTA
group 1

Lookup: Note: place this sequence into its band. Item: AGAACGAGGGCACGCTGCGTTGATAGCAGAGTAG
Found: group 2

Lookup: Note: place this sequence into its band. Item: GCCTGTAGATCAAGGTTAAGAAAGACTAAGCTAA
Found: group 2

====

The sequences listed here are annotated with their PBM binding z-score.
Test system: LXRa homodimer (NR concentration 270 nM)
method.notes: PBM binding z-score (relative to random genomic background probes); higher = stronger binding; sequences stand for … in GC…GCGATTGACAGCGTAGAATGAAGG
// return just the number, without any unit appended

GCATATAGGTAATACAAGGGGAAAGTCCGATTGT
0.0811
CCTACTGGGCCACGGAAGGTCATTGATTCAGTGA
2.27
AGAACGAGGGCACGCTGAGTTGATGGCAGAGTAG
-0.81
TAGCCTAGGTCATTCAGGGGACAGTATAGAAAGC
1.41
TGTCAAAGTTCAAAAGTAACGTAAGTATCCACAC
4.09

Lookup: Looking for the measured PBM binding z-score of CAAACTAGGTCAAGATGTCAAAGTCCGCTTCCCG , can you help?
Found: 0.475

Lookup: Looking for the measured PBM binding z-score of CGAACGAGGGCATGAGCTGATAGCAAATGCCGAT , can you help?
Found: -0.266

Lookup: Looking for the measured PBM binding z-score of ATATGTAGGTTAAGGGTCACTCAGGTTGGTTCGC , can you help?
Found: 1.96

Lookup: Looking for the measured PBM binding z-score of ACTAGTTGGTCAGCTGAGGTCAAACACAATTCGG , can you help?
Found: 4.08

Lookup: Looking for the measured PBM binding z-score of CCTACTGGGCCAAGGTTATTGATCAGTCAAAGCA , can you help?
Found: -0.113

Lookup: Looking for the measured PBM binding z-score of ACTATTAGCTGAGACGAGGGCAACCGATAGGTTG , can you help?
Found: 0.0861

Lookup: Looking for the measured PBM binding z-score of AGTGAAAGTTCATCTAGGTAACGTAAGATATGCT , can you help?
Found: 5.06

====

Tested on: LXRa homodimer (NR concentration 270 nM)
method.notes: PBM binding z-score (relative to random genomic background probes); higher = stronger binding; sequences stand for … in GC…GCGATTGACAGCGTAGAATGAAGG
Class t: PBM binding z-score at least 0.3. Class f: PBM binding z-score below 0.3.

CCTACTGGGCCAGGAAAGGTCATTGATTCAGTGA
t
CGTCCTAGGTCAAAGGTCAGTGAAGAGATGACGG
t
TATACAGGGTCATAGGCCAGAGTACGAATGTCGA
t
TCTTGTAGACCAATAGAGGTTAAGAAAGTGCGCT
t

Lookup: # bool: PBM binding z-score of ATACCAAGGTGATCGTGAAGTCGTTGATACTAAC >= 0.3
Found: f

Lookup: # bool: PBM binding z-score of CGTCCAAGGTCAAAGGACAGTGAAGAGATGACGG >= 0.3
Found: t

Lookup: # bool: PBM binding z-score of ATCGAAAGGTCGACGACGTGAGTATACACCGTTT >= 0.3
Found: f

Lookup: # bool: PBM binding z-score of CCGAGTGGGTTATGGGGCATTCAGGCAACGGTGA >= 0.3
Found: f

Lookup: # bool: PBM binding z-score of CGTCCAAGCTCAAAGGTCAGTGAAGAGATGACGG >= 0.3
Found: t

====

Tested on: VDR homodimer (NR concentration 270 nM)
method.notes: PBM binding z-score (relative to random genomic background probes); higher = stronger binding; sequences stand for … in GC…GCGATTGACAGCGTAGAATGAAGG
quantity.name: PBM binding z-score

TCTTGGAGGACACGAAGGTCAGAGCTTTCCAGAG
1.13
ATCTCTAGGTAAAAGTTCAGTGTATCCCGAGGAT
2.3
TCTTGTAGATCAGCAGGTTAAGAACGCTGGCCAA
-0.247
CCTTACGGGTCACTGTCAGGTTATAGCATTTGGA
1.41

Lookup: Looking for the measured PBM binding z-score of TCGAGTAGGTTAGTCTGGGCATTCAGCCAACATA , can you help?
Found: -0.466

Lookup: Looking for the measured PBM binding z-score of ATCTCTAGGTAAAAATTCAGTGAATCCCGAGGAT , can you help?
Found: -0.0746

Lookup: Looking for the measured PBM binding z-score of TAGCCTAGGTCATTGGGCCAGTATCGTACGCATC , can you help?
Found: 1.43

Lookup: Looking for the measured PBM binding z-score of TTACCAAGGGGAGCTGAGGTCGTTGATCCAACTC , can you help?
Found: 1.86

Lookup: Looking for the measured PBM binding z-score of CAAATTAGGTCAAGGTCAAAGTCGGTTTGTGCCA , can you help?
Found: 4.95

Lookup: Looking for the measured PBM binding z-score of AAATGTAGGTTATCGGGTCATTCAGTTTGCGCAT , can you help?
Found: 4

Lookup: Looking for the measured PBM binding z-score of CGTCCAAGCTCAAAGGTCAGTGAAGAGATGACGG , can you help?
Found: 0.215
